As shown below, each of these variants has a reported abundance fitness value.
B1: Segment polarity protein dishevelled homolog DVL-3, residues 2 to 81; numbered along this chain, Q92997 (parent)
chain: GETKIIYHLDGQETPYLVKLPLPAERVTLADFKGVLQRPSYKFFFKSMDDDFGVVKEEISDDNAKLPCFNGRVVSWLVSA

Variants of: B1
Assay: abundance fitness (aPCA) (normalised: wild type 0, dead -1); higher = more abundant; growth selection in yeast, the domain comes from the species named
Conditions: Homo sapiens
Returns: the value as a bare number; no unit string appended.

Here are 3 variants together with their reported answers.
N63T : -0.119
F52C : 0.351
F32I : -0.469

Which measured abundance fitness value corresponds to S60N ?
-0.111

Consider next the variant V27F in the same way.
-0.154

Consider next the variant C68S in the same way.
0.081

Consider next the variant P21K in the same way.
-0.449

Consider next the variant V73D in the same way.
-0.501

Consider next the variant L22V in the same way.
0.059
